So I've got a bunch of variants here, and I need their abundance fitness values.
B1: KAT8 regulatory NSL complex subunit 2, residues 28 to 91; numbered along this chain, Q9H9L4 (parent)
chain: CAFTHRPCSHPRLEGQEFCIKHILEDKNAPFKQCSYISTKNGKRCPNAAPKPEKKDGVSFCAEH

- Variants of: B1
- assay_remarks: abundance fitness (aPCA) (normalised: wild type 0, dead -1); higher = more abundant; growth selection in yeast, the domain comes from the species named
- measurement_conditions: Homo sapiens

QUERY: Please report the recorded abundance fitness for F3I .
RESULT: 0.033

QUERY: abundance fitness for L13R ?
RESULT: -0.465

QUERY: Endpoint output: abundance fitness of D56I . Value?
RESULT: -0.2

QUERY: # lookup: abundance fitness of K40Y
RESULT: -0.052

QUERY: State the recorded abundance fitness for this entry: C8H
RESULT: -0.854

QUERY: Quick one: abundance fitness of G15N ?
RESULT: -0.134

QUERY: What value of abundance fitness has been reported for the following variant? A29E
RESULT: -0.308

QUERY: Value lookup for abundance fitness; key = R12T
RESULT: -0.103

QUERY: Requested read-out: abundance fitness. Entry: C34I
RESULT: -0.56

QUERY: Can you share its abundance fitness? I mean this variant: P50H
RESULT: -0.135

QUERY: I have this variant here, A2I , and I need its recorded abundance fitness.
RESULT: -0.198

QUERY: # input variant: A49Q ; wanted: its abundance fitness
RESULT: -0.3

QUERY: Name the reported abundance fitness value associated with the variant S59F
RESULT: -0.062

QUERY: If you can, please state the reported abundance fitness value of K43S .
RESULT: -0.042

QUERY: What does the data say about its abundance fitness? Entry: H64K
RESULT: -0.509

QUERY: # lookup: abundance fitness of F31M
RESULT: -0.175

QUERY: Quick check: abundance fitness of K43H ?
RESULT: -0.063

QUERY: Would you mind telling me what abundance fitness value was observed for P52K ?
RESULT: -0.136

QUERY: Name the reported abundance fitness value associated with the variant C45M
RESULT: -0.438

QUERY: Return reported abundance fitness; argument: S38V
RESULT: -0.024

QUERY: // query abundance fitness value for entry H22V
RESULT: -1.36

QUERY: Find the recorded abundance fitness belonging to P52V and report it.
RESULT: -0.083

QUERY: Quick one: abundance fitness for P7A ?
RESULT: -0.061

QUERY: Quick one: abundance fitness for L24Y ?
RESULT: -0.168

QUERY: Give its abundance fitness value. Item: G15E
RESULT: -0.219

QUERY: Data request, read-out abundance fitness, for C61A
RESULT: -0.483

QUERY: For the variant shown here, K21I , give the reported abundance fitness.
RESULT: -0.251

QUERY: // abundance fitness lookup, key: E14C
RESULT: -0.168

QUERY: Can you share its abundance fitness? I mean this variant: F3W
RESULT: -0.161

QUERY: Please give the measured abundance fitness for this variant: S9H
RESULT: -0.119

QUERY: Fill in the blank: the reported abundance fitness of C19E is ____.
RESULT: -1

QUERY: // returns reported abundance fitness for input H64Q
RESULT: -0.463

QUERY: Looking for the measured abundance fitness of P46V , can you help?
RESULT: -0.069

QUERY: Could you share which abundance fitness value was measured for I20R ?
RESULT: -0.117

QUERY: Value lookup for abundance fitness; key = C1W
RESULT: -0.837

QUERY: Name the recorded abundance fitness for N47H .
RESULT: -0.118

QUERY: What does the data say about its abundance fitness? Entry: C8E
RESULT: -0.711

QUERY: Record request: abundance fitness value, item E14Q
RESULT: -0.155

QUERY: Given the variant A29M , what is its reported abundance fitness?
RESULT: -0.204

QUERY: Find the recorded abundance fitness belonging to E14V and report it.
RESULT: -0.098

QUERY: Entry F18G : reported abundance fitness = ?
RESULT: -0.563

QUERY: Find the recorded abundance fitness belonging to N47D and report it.
RESULT: 0.017

QUERY: May I ask what abundance fitness has been recorded for A2D ?
RESULT: -0.388

QUERY: What value of abundance fitness has been reported for the following variant? L24A
RESULT: -0.144

QUERY: Name the recorded abundance fitness for S35Y .
RESULT: -0.113

QUERY: Given the variant N28D , what is its reported abundance fitness?
RESULT: -0.252
